Data provenance: patent US10202361B2

Attribute: Plant response rating
- Tested on: bluegrass (annual bluegrass, Poa annua)
- method: Test D pre-/postemergence controlled growth environment herbicide test
- Type: in vivo
- test.parameters: Preemergence, 125 g ai/ha, scale 0 to 100

>  <smiles>
Cc1cc(=O)n(-c2ccc(F)cc2)nc1Oc1ccnc(C(F)(F)F)c1

>  <target.desc>
bluegrass (annual bluegrass, Poa annua)

>  <Plant response rating>
10

$$$$
>  <smiles>
Cc1cc(=O)n(-c2ccc(F)cc2)nc1Cc1ccnc(C(F)(F)F)c1

>  <target.desc>
bluegrass (annual bluegrass, Poa annua)

>  <Plant response rating>
0

$$$$
>  <smiles>
Cc1cc(=O)n(-c2ccc(C(F)(F)F)cc2)nc1Cc1ccnc(C(F)(F)F)c1

>  <target.desc>
bluegrass (annual bluegrass, Poa annua)

>  <Plant response rating>
10

$$$$
>  <smiles>
COc1cc(=O)n(-c2ccc(F)cc2)nc1Cc1ccnc(C(F)(F)F)c1

>  <target.desc>
bluegrass (annual bluegrass, Poa annua)

>  <Plant response rating>
25

$$$$
